# -Log C per record follows
Organism: Oryctolagus cuniculus
Assay Method Text: Negative log of minimum effective dose (moles per kilogram) in rabbits (hypnotic)
Assay type: functional
Lab note: jot the number down without any unit.

C=CCC1(C(C)CCC)C(=O)NC(=S)NC1=O (stereo not drawn): 4.15
CCC1(CC)C(=O)NC(=O)N(C)C1=O: 3.12
C=CCC1(CC=C)C(=O)NC(=O)NC1=O: 3.54
CCC(C)C1(CC)C(=O)NC(=O)NC1=O (stereo not drawn): 3.63
CCC1(CC)C(=O)NC(=O)NC1=O: 3.09
CCCC(C)C1(CC)C(=O)NC(=O)NC1=O (stereo not drawn): 4.05
C=CCC1(C(C)C)C(=O)NC(=O)NC1=O: 3.6

Please examine the following record next.
Give its -Log C value. Item: "C=CCC1(CC(C)C)C(=O)NC(=O)NC1=O"
3.63

---

# Log K per record follows
Assay Method Text: Compound is evaluated for […] log k
Assay type: physicochemical
Condition Context: octanol/water
Lab note: jot the number down without any unit.

Cc1ccnc(NS(=O)(=O)c2ccc(N)cc2)n1: 0.829
C=CCC1(CC(C)C)C(=O)NC(=O)NC1=O: 1.01
C=CCC1(C(C)CCC)C(=O)NC(=O)NC1=O (stereo not given): 1.52
Cc1noc(NS(=O)(=O)c2ccc(N)cc2)c1C: 0.762
CCC1(CCC(C)C)C(=O)NC(=O)NC1=O: 1.33

Give its Log K value. Item: CCCC(C)C1(CC)C(=O)NC(=O)NC1=O (stereo not given)
1.32

And "[H]/N=C(/N)NS(=O)(=O)c1ccc(N)cc1" ?
-0.00612

And "Cc1cc(C)nc(NS(=O)(=O)c2ccc(N)cc2)n1" ?
1.49

And C=CCC1(C(C)C#CCC)C(=O)NC(=O)N(C)C1=O (stereo not given) ?
1.96

And CN1C(=O)NC(=O)C(C)(C2=CCCCC2)C1=O (stereo not given) [HEXOBARBITAL] ?
1.13

---

Assay Method Text: Negative log of molar concentration (-log ED50) required to reduce cell division by 50% in Arbacia egg
Type: functional
Kindly return yes if reported -Log ED50 is no lower than 2; return no if it is lower.

CCC1(C2=CCCCC2)C(=O)NC(=O)NC1=O: yes
CCC1(CC)C(=O)NC(=O)NC1=O: no
CCC1(CCC(C)C)C(=O)NC(=O)NC1=O: yes
CCCC(C)C1(CC)C(=O)NC(=O)NC1=O (stereo not drawn): yes
C=CCC1(CC=C)C(=O)NC(=O)NC1=O: no

Field: next compound
Record C=CCC1(C(C)CCC)C(=O)NC(=O)NC1=O (stereo not drawn) ; criterion: -Log ED50 no lower than 2. Met?
yes

---

Assay Method Text: Negative log of Langmuir's alpha constant (-log alpha), which is inversely proportional to the effective binding constant (protein binding)
Assay type: ADME
// boundary case: -Log alpha equal to -2 maps to no; strictly smaller maps to yes

Example entries and their recorded answers appear below.
COc1ccc(NS(=O)(=O)c2ccc(N)cc2)nn1 [SULFAMETHOXYPYRIDAZINE]: no
Nc1ccc(S(N)(=O)=O)cc1 [SULFANILAMIDE]: yes
Cc1cc(NS(=O)(=O)c2ccc(N)cc2)no1 [SULFAMETHOXAZOLE]: yes

Field: next compound
Check if -Log alpha falls below -2 for Nc1ccc(S(=O)(=O)Nc2nccs2)cc1 [SULFATHIAZOLE] .
yes
